MEASUREMENT_NOTES: Clearance in rat at 1 mg/kg, iv
Format: ADME, organism-based
Set-up: dose 1 mg/kg, route intravenous
ASSAY_CONTEXT: in vivo
RECORDED_ENDPOINT: clearance (mL/min/kg)

{"CHEMICAL_STRING": "NC(=O)c1cnc(-c2cnc3c(Nc4ccc(C(F)(F)F)cn4)ccnc3n2)c(C(F)(F)F)c1", "RECORDED_ENDPOINT": "clearance", "UNITS_TEXT": "mL/min/kg", "NUMERIC_READOUT": 25}

----------
TARGET_UNDER_TEST: Voltage-gated inwardly rectifying potassium channel KCNH2 (Homo sapiens, UniProt Q12809)
Sequence (Q12809 whole entry): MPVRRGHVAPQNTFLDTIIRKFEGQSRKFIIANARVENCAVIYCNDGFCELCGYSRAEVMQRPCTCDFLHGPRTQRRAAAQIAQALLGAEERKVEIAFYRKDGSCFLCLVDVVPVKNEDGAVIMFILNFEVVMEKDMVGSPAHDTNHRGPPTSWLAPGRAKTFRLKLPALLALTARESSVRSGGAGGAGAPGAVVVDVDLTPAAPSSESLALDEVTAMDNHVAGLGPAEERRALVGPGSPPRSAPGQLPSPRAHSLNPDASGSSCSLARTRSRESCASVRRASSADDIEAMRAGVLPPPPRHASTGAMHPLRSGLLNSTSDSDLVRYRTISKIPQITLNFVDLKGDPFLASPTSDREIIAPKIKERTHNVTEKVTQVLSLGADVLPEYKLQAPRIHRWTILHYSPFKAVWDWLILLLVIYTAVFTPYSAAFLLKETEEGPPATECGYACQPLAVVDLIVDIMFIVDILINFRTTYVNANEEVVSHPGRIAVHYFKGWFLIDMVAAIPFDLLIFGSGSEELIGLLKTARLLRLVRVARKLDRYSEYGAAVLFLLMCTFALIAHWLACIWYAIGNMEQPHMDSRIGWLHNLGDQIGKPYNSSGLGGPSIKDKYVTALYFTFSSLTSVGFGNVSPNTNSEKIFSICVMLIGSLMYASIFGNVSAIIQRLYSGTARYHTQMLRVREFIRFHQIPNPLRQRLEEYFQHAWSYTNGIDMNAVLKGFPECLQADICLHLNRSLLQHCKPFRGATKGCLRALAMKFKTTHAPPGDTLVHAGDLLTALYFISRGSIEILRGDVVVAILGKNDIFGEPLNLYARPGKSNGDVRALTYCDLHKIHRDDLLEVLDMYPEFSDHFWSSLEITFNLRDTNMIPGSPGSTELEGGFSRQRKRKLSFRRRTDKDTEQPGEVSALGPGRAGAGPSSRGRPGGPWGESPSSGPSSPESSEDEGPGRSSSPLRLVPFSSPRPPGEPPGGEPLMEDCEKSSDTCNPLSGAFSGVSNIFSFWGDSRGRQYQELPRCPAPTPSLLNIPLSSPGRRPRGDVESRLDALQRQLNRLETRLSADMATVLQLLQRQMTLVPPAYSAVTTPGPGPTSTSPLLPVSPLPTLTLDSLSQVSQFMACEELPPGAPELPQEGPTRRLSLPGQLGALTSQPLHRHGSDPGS
RECORDED_ENDPOINT: IC50 (µM)

{"CHEMICAL_STRING": "NC(=O)c1cnc(-c2cnc3c(Nc4ccc(C(F)(F)F)cn4)ccnc3n2)c(C(F)(F)F)c1", "NUMERIC_READOUT": 5.9}

----------
Measured concentration, listed per entry for reference.
Test system: Rattus norvegicus
MEASUREMENT_NOTES: Plasma concentration in Sprague-Dawley rat carrageenan-induced thermal hyperalgesia model at 3 mg/kg, po
Format: ADME, organism-based
Set-up: dose 3 mg/kg, route oral
ASSAY_CONTEXT: in vivo
RECORDED_ENDPOINT: concentration (nM)

{"CHEMICAL_STRING": "NC(=O)c1cnc(-c2cnc3c(Nc4ccc(C(F)(F)F)cn4)ccnc3n2)c(C(F)(F)F)c1", "TARGET_UNDER_TEST": "Rattus norvegicus", "NUMERIC_READOUT": 1090}
{"CHEMICAL_STRING": "FC(F)(F)c1ccc(Nc2ccnc3nc(-c4ncccc4C(F)(F)F)ccc23)nc1", "TARGET_UNDER_TEST": "Rattus norvegicus", "NUMERIC_READOUT": 1400}

----------
MEASUREMENT_NOTES: Plasma concentration in rat complete Freund's adjuvant-induced inflammation model at 1 mg/kg, po QD for 3 consecutive days measured at 2 hrs post dose on day 2
Assay type: ADME, organism-based
Set-up: dose 1 mg/kg, route oral
RECORDED_ENDPOINT: concentration at 2 h (nM)

{"CHEMICAL_STRING": "NC(=O)c1cnc(-c2cnc3c(Nc4ccc(C(F)(F)F)cn4)ccnc3n2)c(C(F)(F)F)c1", "RECORDED_ENDPOINT": "concentration at 2 h", "NUMERIC_READOUT": 360}

----------
MEASUREMENT_NOTES: Apparent permeability across MDCK cell membrane
Format: ADME, cell-based, Canis lupus familiaris
ASSAY_CONTEXT: dog

{"CHEMICAL_STRING": "NC(=O)c1cnc(-c2cnc3c(Nc4ccc(C(F)(F)F)cn4)ccnc3n2)c(C(F)(F)F)c1", "Papp": "34 ×10⁻⁶ cm/s"}

----------
MEASUREMENT_NOTES: Half life in rat at 1 mg/kg, iv
Type: ADME, organism-based
Design: dose 1 mg/kg, route intravenous
ASSAY_CONTEXT: in vivo

{"CHEMICAL_STRING": "NC(=O)c1cnc(-c2cnc3c(Nc4ccc(C(F)(F)F)cn4)ccnc3n2)c(C(F)(F)F)c1", "half-life, h": 2.3}

----------
MEASUREMENT_NOTES: Cmax in dog at 1 mg/kg, po
Assay type: ADME, organism-based, Canis lupus familiaris
Parameters: dose 1 mg/kg, route oral
ASSAY_CONTEXT: in vivo

{"CHEMICAL_STRING": "NC(=O)c1cnc(-c2cnc3c(Nc4ccc(C(F)(F)F)cn4)ccnc3n2)c(C(F)(F)F)c1", "UNITS_TEXT": "µM", "Cmax": 0.5}
